molecular target: His-tag fused human HLA-A2 heavy chain (His-HLA-A2) with His-Tag fused human β2-microglobulin (His-β2) (human); assay: MHC-peptide complex formation assay: refolding of His-HLA-A2, His-β2m and peptide, sandwich ELISA (W6/32 capture, anti-β2m detection), relative to positive control peptide

Binder	Unit info	Relative binding (%)
ALLCIAANI (also called TAL6 18-26) [TAL6 peptide No. 3 of Table 1, ALLCIAANI]	%	53.6
AMLSSVLAA (also called TAL6 89-97) [TAL6 peptide No. 7 of Table 1, AMLSSVLAA]	%	115
MLSSVLAAL (also called TAL6 90-98) [TAL6 peptide No. 8 of Table 1, MLSSVLAAL]	%	163
SLFSILLAL (also called TAL6 161-169) [TAL6 peptide No. 12 of Table 1, SLFSILLAL]	%	42.6
